Just for reference, patent US7074789B2 is where these values come from.

target: Itk (Homo sapiens, UniProt Q08881); construct: Kinases are expressed as either kinase domains or full length constructs; made in house; experiment: Kinase inhibition assay (33P transfer), Itk; type: biochemical; settings: read-out: Itk-1
Sequence (Q08881 whole entry, species assumed, the tested form may be a part): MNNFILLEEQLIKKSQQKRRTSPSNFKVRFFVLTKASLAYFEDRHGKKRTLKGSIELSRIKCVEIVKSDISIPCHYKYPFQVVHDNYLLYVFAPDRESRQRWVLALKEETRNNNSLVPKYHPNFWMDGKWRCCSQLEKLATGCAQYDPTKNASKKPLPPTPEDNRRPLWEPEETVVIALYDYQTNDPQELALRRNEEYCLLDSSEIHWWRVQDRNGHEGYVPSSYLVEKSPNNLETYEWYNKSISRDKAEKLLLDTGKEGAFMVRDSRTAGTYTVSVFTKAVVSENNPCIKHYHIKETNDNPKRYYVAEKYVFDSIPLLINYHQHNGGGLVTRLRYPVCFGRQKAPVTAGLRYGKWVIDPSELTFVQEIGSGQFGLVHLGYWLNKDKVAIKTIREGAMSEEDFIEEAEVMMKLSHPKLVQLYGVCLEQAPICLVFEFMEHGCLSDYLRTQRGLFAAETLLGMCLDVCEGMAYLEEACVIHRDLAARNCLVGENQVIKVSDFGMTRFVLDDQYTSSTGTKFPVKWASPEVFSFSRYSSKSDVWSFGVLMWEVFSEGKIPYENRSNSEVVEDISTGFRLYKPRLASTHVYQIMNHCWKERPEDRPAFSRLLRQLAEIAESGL
pIC50: −log10 of the molar value.
experimentalEndpoint: pIC50

Example cases with answers are listed next.
c1ccc(Cn2ncc3cc(Nc4ncnc(NCC5CCCCC5)n4)ccc32)cc1 | < 4.96
CCN(c1cccc(C)c1)c1ncnc(Nc2cc(OC)c(OC)c(OC)c2)n1 | 4.94 to 5.05

Find pIC50 for CCN(CC)c1ccc(Nc2ncnc(N3CCCc4cc(C)ccc43)n2)cc1 on Itk (Homo sapiens, UniProt Q08881) and write it down.
< 4.94

Print Itk (Homo sapiens, UniProt Q08881) pIC50 for COc1cc(Nc2ncnc(-n3c(NC4CCCc5ccccc54)nc4ccccc43)n2)cc(OC)c1OC (centres unmarked) [Compound 1043] .
< 5.07

Please report pIC50 with Itk (Homo sapiens, UniProt Q08881) for item COc1cc(Nc2ncnc(Nc3cccc(CN4CCN(C)CC4)c3)n2)cc(OC)c1OC .
< 5.01

###

pIC50 reference
molecular target: Itk (Homo sapiens, UniProt Q08881); construct: Kinases are expressed as either kinase domains or full length constructs; made in house; experiment: Kinase inhibition assay (33P transfer), Itk; assay type: biochemical; conditions: Table 3; read-out: Itk-1
pIC50: −log10 of the molar value.

COc1cc(Nc2ncnc(Nc3ccc(NC(=O)OC(C)(C)C)cc3)n2)cc(OC)c1OC | < 5.02
Cc1cccc(Nc2ncnc(Nc3ccc(O)cc3)n2)c1 | 5.09 to 5.87
COc1cc(Nc2ncnc(Nc3ccc(Br)cc3F)n2)cc(OC)c1OC | 5.00 to 5.11
COc1cc(Nc2ncnc(-n3c(Nc4ccccc4C)nc4ccccc43)n2)cc(OC)c1OC | < 5.03
COc1ccc(Nc2nc3ccccc3n2-c2ncnc(Nc3cc(OC)c(OC)c(OC)c3)n2)cc1 | < 5.05
COc1ccc(Nc2ncnc(Nc3ccc(N(C)C)cc3)n2)cc1OC | < 4.91

Name the value of pIC50 reported for COCCOc1ccc(Nc2ncnc(Nc3ccc(C)c(O)c3)n2)cc1OC when tested on Itk (Homo sapiens, UniProt Q08881).
5.06 to 5.22

Fill: pIC50 (Itk (Homo sapiens, UniProt Q08881)) for this compound COc1ccc(N(C)c2ncnc(Nc3cc(OC)c(OC)c(OC)c3)n2)cc1
< 4.95

GET pIC50 where system = Itk (Homo sapiens, UniProt Q08881) and item = Fc1ccccc1Nc1ncnc(-c2ccccc2)n1
< 4.77

For Itk (Homo sapiens, UniProt Q08881), give the measured pIC50 of the entry COc1cc(Nc2ncnc(Nc3ccc4c(c3)OCO4)n2)cc(OC)c1OC
5.06 to 5.22

Return reported pIC50 for target or system Itk (Homo sapiens, UniProt Q08881), item O=c1[nH]c2ccccc2n1-c1ncnc(Nc2ccc(Cl)cc2)n1 .
< 4.88

Fetch value of pIC50 on Itk (Homo sapiens, UniProt Q08881) for CCOc1ccc(Nc2ncnc(-n3c(N)nc4ccccc43)n2)cc1OCC .
< 4.94

###

molecular target: FGFR1 (Homo sapiens, UniProt P11362)
Sequence (P11362 22-822, species assumed): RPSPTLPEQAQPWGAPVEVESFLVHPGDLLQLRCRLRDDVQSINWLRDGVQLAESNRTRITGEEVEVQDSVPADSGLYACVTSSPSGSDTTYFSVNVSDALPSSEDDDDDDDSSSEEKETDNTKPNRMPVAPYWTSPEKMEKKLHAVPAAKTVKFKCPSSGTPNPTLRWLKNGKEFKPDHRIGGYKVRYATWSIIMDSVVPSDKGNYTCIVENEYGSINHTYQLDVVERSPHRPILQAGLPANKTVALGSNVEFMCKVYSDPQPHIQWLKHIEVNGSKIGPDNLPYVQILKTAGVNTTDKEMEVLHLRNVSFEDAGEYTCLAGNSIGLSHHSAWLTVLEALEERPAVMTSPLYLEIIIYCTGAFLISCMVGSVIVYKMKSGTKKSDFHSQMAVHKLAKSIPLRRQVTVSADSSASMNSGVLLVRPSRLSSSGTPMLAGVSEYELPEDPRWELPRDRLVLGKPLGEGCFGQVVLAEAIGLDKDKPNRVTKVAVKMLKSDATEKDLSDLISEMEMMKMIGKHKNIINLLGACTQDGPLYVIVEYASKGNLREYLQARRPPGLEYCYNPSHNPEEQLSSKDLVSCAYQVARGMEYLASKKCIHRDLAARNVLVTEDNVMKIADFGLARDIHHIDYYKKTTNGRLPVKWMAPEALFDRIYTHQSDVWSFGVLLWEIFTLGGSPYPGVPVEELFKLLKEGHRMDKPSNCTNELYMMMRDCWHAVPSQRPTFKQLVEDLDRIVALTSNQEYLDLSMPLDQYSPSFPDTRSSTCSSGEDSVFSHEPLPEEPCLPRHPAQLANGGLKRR
Property: IC50; scope: individual compounds

Examples with their reported IC50 follow.
COc1cc(Nc2ncnc(Nc3cc(F)ccc3F)n2)cc(OC)c1OC | > 11.6 µM
COc1cc(Nc2ncnc(-n3c(NCc4ccccc4)nc4ccccc43)n2)cc(OC)c1OC | < 0.827 µM
COc1cc(Nc2ncnc(Nc3ccc(N)cc3)n2)cc(OC)c1OC | 6.51 to 9.5 µM

Dear colleague, please send me the reported IC50 for COc1cc(Nc2ncnc(-n3c(Nc4ccc(C)cc4)nc4ccccc43)n2)cc(OC)c1OC when you can.
< 0.827 µM

Please give measured IC50 of the following entry: COc1ccc(Nc2ncnc(N(C/C=C/c3ccccc3)c3ccc(Cl)cc3)n2)cc1OC
5.06 to 7.38 µM

Please give the documented IC50 of COc1cc(Nc2ncnc(Nc3ccc(C(C)C)cc3)n2)cc(OC)c1OC
> 11.4 µM
